Test: small-molecule microarray binders of probe aCHRDL2, primary screen, biochemical, biotinylated probe, 635/667 nm fluorescence (AID 1100)
Conditions: higher = more signal
Answer Not fulfilled if composite z-score is under 0.2, and Fulfilled if it is 0.2 or more.

Hi team, for `C=CCOC(=O)[C@@H]1[C@H]2C(=O)O[C@H](c3ccccc3)[C@H](c3ccccc3)N2[C@H](c2ccc(OCCOC(=O)[C@@H]3C[C@@H]4C(=O)N[C@@H](CCCC[N+](C)(C)C)C(=O)N4[C@@H]3c3cccc(OCCO)c3)cc2)[C@@]12C(=O)Nc1ccc(I)cc12` , is the recorded composite z-score at or above 0.2?
Not fulfilled

Hi team, for `CCCN1C(=O)[C@]2(CCS(=O)(=O)c3ccccc3)N=C(c3ccc(OCCCO)cc3)O[C@@H]2c2ccccc21` , is the recorded composite z-score at or above 0.2?
Fulfilled

Hi team, for `CCCC=C(CCC)[C@@H](NC(=O)Oc1ccc(F)cc1)c1ccc(C(=O)OC)cc1` , is the recorded composite z-score at or above 0.2?
Fulfilled

Hi team, for `C=CCN1C(=O)[C@@]2(O[C@@H](CCO)[C@H]([Si](C)(C)c3ccc(OC)cc3)[C@H]2C)c2cc(NC(=O)c3ccc(OC)cc3)ccc21` , is the recorded composite z-score at or above 0.2?
Not fulfilled

Hi team, for CCC(CC)C(O)C1C=CC2C(=O)N(C)C(=O)C2N1Nc1ccccc1 (centres undefined) , is the recorded composite z-score at or above 0.2?
Fulfilled

Hi team, for `CCOC(=O)[C@H]1C/C=C/C[C@H](C(=O)OCC)C(=O)O[C@H]2[C@@H](OC)O[C@H](CO)[C@@H](OC(=O)Nc3ccc(C#N)cc3)[C@@H]2OC1=O` , is the recorded composite z-score at or above 0.2?
Not fulfilled

Hi team, for `CC(=O)NCCCC[C@@H]1NC(=O)[C@@H]2C[C@H](C(=O)NCCCCN(C)C)[C@H](c3cccc(OCCO)c3)N2C1=O` , is the recorded composite z-score at or above 0.2?
Fulfilled

Hi team, for `COCCOC(=O)N1C(=O)[C@@]2(c3cc(C#CC4=CCCCC4)ccc31)[C@H](C(=O)Nc1nc3ccccc3s1)[C@H]1C(=O)O[C@H](c3ccccc3)[C@H](c3ccccc3)N1[C@@H]2c1ccc(OCCO)cc1` , is the recorded composite z-score at or above 0.2?
Fulfilled

Hi team, for `COCCOC(=O)N1C(=O)[C@@]2(c3cc(C#CCCO)ccc31)[C@H](C(=O)N1CCN(c3ncccn3)CC1)[C@H]1C(=O)O[C@H](c3ccccc3)[C@H](c3ccccc3)N1[C@@H]2c1ccccc1OCCO` , is the recorded composite z-score at or above 0.2?
Not fulfilled

Hi team, for `C=C(CCCC)C(=O)CC[C@@H](OC(=O)c1cccnc1)c1ccc(CO)o1` , is the recorded composite z-score at or above 0.2?
Not fulfilled

Hi team, for `CN1C(=O)[C@]2(Cc3ccccc3)N=C(c3ccc(OCCCO)cc3)O[C@@H]2c2ccccc21` , is the recorded composite z-score at or above 0.2?
Fulfilled

Hi team, for `CCCCCCC#C[Si](O[C@H](c1ccccc1)c1cn([C@H](CO)Cc2ccccc2)nn1)(C(C)C)C(C)C` , is the recorded composite z-score at or above 0.2?
Not fulfilled

Hi team, for `CC(C)(C)OC(=O)CC[C@@]1(C(N)=O)N=C(c2ccc(OCCCO)cc2)O[C@@H]1c1ccccc1` , is the recorded composite z-score at or above 0.2?
Fulfilled
